Reported Ratio over Background values for a set of binders
molecular target: T1, soluble human insulin receptor-immunoglobulin heavy chain chimera (sIR-Fc; Bass et al., 1996) (human, UniProt P06213 28-956, limits assumed); test: phage ELISA
T1 construct: extracellular domain; also called soluble IR (Bass construct); not shown: immunoglobulin heavy chain constant domains
# respond with the number and nothing more

Sample records with Ratio over Background:
Record FYVQQWGHENFYDWFDRQVSQSGGAG [H2CA-4-F1-IGFR] . Reported Ratio over Background: 0.9

Record APDPSDFQEIFYDWFVRQVSRMPGGG [H2CA-1-A3-IGFR] . Reported Ratio over Background: 0.8

Record GRTMAVMAAGGPDDPFYHKLSELVQGG [B6Hα-2-D6-IR] . Reported Ratio over Background: 1

Record AETSVQVGWIRLQSVWPGEHWNTVDPFYHKLSELLRGSGA [B6L-4-D7-IR] . Reported Ratio over Background: 1.4

Record SSCDGAGHESFYEWFVRQVSGCRSV [H2CA-3-C8-IGFR] . Reported Ratio over Background: 1.2

Record RGKTAAVIVGRPADPFYHKLSELLQGG [B6Hα-3-E8-IR] . Reported Ratio over Background: 1.1

***
Record IWATGDFYRLLSQLVMGRVGT [20E2B-2-B8-IGFR] . Reported Ratio over Background: 0.8

Record GNGDGMFYQLLSLLVGRDMHV [20E2B-3-02-IGFR] . Reported Ratio over Background: 0.6

Record FYDAIDQLVRGSARAGGTRD [R20α-3-20E2-IR] . Reported Ratio over Background: 3.1

Record SSIGGGFHENFYDWFSRQLSQSPPLK [H2CA-4-F7-IGFR] . Reported Ratio over Background: 0.8

Record QPDHSYFYSLLQELVGSEERL [20E2B-4-F9-IGFR] . Reported Ratio over Background: 1.9
